- experiment-notes: self-splicing fitness, log relative to wild type (ln ratio); higher = more splicing; Tetrahymena group I intron in knt gene, E. coli kanamycin selection, DiMSum; sequences stand for … in CUCUCU…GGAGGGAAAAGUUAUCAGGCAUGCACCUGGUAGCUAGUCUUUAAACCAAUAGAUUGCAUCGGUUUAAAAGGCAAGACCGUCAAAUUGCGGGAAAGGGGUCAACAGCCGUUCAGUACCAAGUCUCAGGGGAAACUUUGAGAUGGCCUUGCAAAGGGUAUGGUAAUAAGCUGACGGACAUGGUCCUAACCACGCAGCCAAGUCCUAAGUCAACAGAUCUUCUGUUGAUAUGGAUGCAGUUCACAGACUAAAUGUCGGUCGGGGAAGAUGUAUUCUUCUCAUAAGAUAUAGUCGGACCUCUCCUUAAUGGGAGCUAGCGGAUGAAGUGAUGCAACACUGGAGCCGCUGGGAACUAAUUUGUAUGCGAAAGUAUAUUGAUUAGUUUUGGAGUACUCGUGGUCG;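 note: selection with 25 µg/mL kanamycin versus none on LB agar overnight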
- conditions-used: 30 °C
property-label: self-splicing fitness (ln)
Please reply with the number alone, leaving off any unit.

Supply reported self-splicing fitness (ln) belonging to this sequence: UCGAAGCAAUAUUACGGAAU
-3.57

Further cases:
Supply reported self-splicing fitness (ln) belonging to this sequence: CUAUAGCAAUAUUACGGAGG
-2.7

Supply reported self-splicing fitness (ln) belonging to this sequence: CGCGAGCAAUAUUACGCUUU
-3.44

Supply reported self-splicing fitness (ln) belonging to this sequence: GUCAAGCAAUAUUACGCACU
-1.71

Supply reported self-splicing fitness (ln) belonging to this sequence: UACCAGCAAUAUUACGUAUU
-2.16

Supply reported self-splicing fitness (ln) belonging to this sequence: CUGAAGCAAUAUUACGAGUU
-4

Supply reported self-splicing fitness (ln) belonging to this sequence: UCUCAGCAAUAUUACGGCAG
-3.36

Supply reported self-splicing fitness (ln) belonging to this sequence: CACGAGCAAUAUUACGCGCG
-2.9

====

- experiment-notes: self-splicing fitness, log relative to wild type (ln ratio); higher = more splicing; Tetrahymena group I intron in knt gene, E. coli kanamycin selection, DiMSum; sequences stand for … in CUCUCU…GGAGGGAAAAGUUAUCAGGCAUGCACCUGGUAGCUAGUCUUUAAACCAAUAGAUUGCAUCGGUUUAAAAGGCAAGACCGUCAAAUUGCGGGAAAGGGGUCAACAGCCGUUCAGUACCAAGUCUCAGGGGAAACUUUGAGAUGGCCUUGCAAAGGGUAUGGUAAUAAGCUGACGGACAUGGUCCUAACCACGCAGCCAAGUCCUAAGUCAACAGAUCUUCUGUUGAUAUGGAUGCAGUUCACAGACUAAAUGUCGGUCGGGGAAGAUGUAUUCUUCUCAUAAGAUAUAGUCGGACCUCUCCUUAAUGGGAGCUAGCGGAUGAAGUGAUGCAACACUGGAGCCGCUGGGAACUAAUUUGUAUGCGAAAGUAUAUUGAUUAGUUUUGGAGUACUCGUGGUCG
- conditions-used: 37 °C
property-label: self-splicing fitness (ln)
Please reply with the number alone, leaving off any unit.

Supply reported self-splicing fitness (ln) belonging to this sequence: CUGCAGCAAUAUUACGAAAU
-1.62

Further cases:
Supply reported self-splicing fitness (ln) belonging to this sequence: CAAGAGCAAUAUUACGUCGA
-2.2

Supply reported self-splicing fitness (ln) belonging to this sequence: CAGUAGCAAUAUUACGAAGC
-3.05

Supply reported self-splicing fitness (ln) belonging to this sequence: UAUUAGCAAUAUUACGAGCG
-0.219

Supply reported self-splicing fitness (ln) belonging to this sequence: CGCAAGCAAUAUUACGUCCG
0.53

Supply reported self-splicing fitness (ln) belonging to this sequence: CAACAGCAAUAUUACGUCGG
-0.369

Supply reported self-splicing fitness (ln) belonging to this sequence: ACCGAGCAAUAUUACGUCGA
-2.12

Supply reported self-splicing fitness (ln) belonging to this sequence: CCUAAGCAAUAUUACGCCUG
-2.27

====

- experiment-notes: self-splicing fitness, log relative to wild type (ln ratio); higher = more splicing; Tetrahymena group I intron in knt gene, E. coli kanamycin selection, DiMSum; sequences stand for … in CUCUCU…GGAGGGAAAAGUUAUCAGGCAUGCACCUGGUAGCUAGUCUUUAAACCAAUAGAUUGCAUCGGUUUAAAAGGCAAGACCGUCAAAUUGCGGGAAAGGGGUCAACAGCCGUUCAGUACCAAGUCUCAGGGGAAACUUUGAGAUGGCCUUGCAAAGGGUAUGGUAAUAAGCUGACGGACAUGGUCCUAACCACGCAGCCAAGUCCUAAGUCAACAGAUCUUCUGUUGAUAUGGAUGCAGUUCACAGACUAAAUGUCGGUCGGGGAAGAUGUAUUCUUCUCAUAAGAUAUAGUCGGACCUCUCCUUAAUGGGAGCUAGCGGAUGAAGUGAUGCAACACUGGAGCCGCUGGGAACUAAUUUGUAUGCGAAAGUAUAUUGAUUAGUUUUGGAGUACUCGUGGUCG
- conditions-used: 37 °C
property-label: self-splicing fitness (ln)
Please reply with the number alone, leaving off any unit.

Supply reported self-splicing fitness (ln) belonging to this sequence: UGACAGCAAUAUUACGUUUA
-0.556

Supply reported self-splicing fitness (ln) belonging to this sequence: GAGUAGCAAUAUUACGGAGG
-0.837

Supply reported self-splicing fitness (ln) belonging to this sequence: CAGCAGCAAUAUUACGCUCU
-2.08

Supply reported self-splicing fitness (ln) belonging to this sequence: AUCUAGCAAUAUUACGAUAU
-0.605

Supply reported self-splicing fitness (ln) belonging to this sequence: AUCAAGCAAUAUUACGUAUG
-1.56

Supply reported self-splicing fitness (ln) belonging to this sequence: AGGUAGCAAUAUUACGUGCC
-1.22

Supply reported self-splicing fitness (ln) belonging to this sequence: AGCAAGCAAUAUUACGCGAG
-2.87

Further cases:
Supply reported self-splicing fitness (ln) belonging to this sequence: UUGUAGCAAUAUUACGCCUG
0.399

====

- experiment-notes: self-splicing fitness, log relative to wild type (ln ratio); higher = more splicing; Tetrahymena group I intron in knt gene, E. coli kanamycin selection, DiMSum; sequences stand for … in CUCUCU…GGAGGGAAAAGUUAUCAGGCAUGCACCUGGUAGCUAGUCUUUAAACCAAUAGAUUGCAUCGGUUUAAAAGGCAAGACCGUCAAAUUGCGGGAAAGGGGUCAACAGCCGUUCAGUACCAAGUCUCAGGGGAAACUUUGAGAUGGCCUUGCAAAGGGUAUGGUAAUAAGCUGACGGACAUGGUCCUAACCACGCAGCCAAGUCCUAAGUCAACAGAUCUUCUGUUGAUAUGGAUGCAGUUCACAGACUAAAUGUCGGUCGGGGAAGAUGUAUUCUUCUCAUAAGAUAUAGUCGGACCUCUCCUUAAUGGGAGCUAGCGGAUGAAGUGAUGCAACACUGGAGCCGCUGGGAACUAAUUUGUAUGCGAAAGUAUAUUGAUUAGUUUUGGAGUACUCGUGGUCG
- conditions-used: 37 °C
Listing: self-splicing fitness (ln) of selected sequences

In the examples that follow, each entry is paired with its recorded self-splicing fitness (ln).
Supply reported self-splicing fitness (ln) belonging to this sequence: ACACAGCAAUAUUACGUAGU
-1.71

Supply reported self-splicing fitness (ln) belonging to this sequence: GACCAGCAAUAUUACGGGUC
-3.33

Supply reported self-splicing fitness (ln) belonging to this sequence: CCGGAGCAAUAUUACGUGCA
-2.06

Supply reported self-splicing fitness (ln) belonging to this sequence: AAAUAGCAAUAUUACGACAU
0.051

Supply reported self-splicing fitness (ln) belonging to this sequence: CAAGAGCAAUAUUACGACAU
-2.85

Supply reported self-splicing fitness (ln) belonging to this sequence: GCAGAGCAAUAUUACGAACU
-1.1

Further cases:
Supply reported self-splicing fitness (ln) belonging to this sequence: CUAUAGCAAUAUUACGGCUC
-2.47

Supply reported self-splicing fitness (ln) belonging to this sequence: CAUGAGCAAUAUUACGGGAG
-1.54

Supply reported self-splicing fitness (ln) belonging to this sequence: AUGGAGCAAUAUUACGUAUA
-2.02

Supply reported self-splicing fitness (ln) belonging to this sequence: ACUCAGCAAUAUUACGCCCG
-0.599

Supply reported self-splicing fitness (ln) belonging to this sequence: UGUUAGCAAUAUUACGCCGA
-1.21

Supply reported self-splicing fitness (ln) belonging to this sequence: CGCUAGCAAUAUUACGAUUU
-1.42

Supply reported self-splicing fitness (ln) belonging to this sequence: UCGGAGCAAUAUUACGACAU
-2.98

Supply reported self-splicing fitness (ln) belonging to this sequence: GACCAGCAAUAUUACGGCUG
-3.41

Supply reported self-splicing fitness (ln) belonging to this sequence: GGCGAGCAAUAUUACGUUAG
-2.49

Supply reported self-splicing fitness (ln) belonging to this sequence: AUGAAGCAAUAUUACGAAUU
-1.25

Supply reported self-splicing fitness (ln) belonging to this sequence: CCUUAGCAAUAUUACGCCUA
-1.4

Supply reported self-splicing fitness (ln) belonging to this sequence: UACUAGCAAUAUUACGUCAA
-1.25

Measured values drawn from the supplement of paper PMC7877785 for this set.
